- Measurement notes: Thermogravimetric analysis (TGA), thermal stability
- Assay type: physicochemical
- Measurement conditions: temperature where weight loss starts, 10 °C min^−1, N2 atmosphere
Task for the reader: assign each of the following compounds its reported Tstart.
The response must be a number in °C with no trailing unit.

Problem: Recorded Tstart of CCCCC(CC)COC(=O)CC(C(=O)OCC(CC)CCCC)S(=O)(=O)O.COc1c(N2C[C@@H]3CCCN[C@@H]3C2)c(F)cc2c(=O)c(C(=O)O)cn(C3CC3)c12 [[Mox][Doc]] , please.
Solution: 249.91

Problem: Please give the result for CCCCC(CC)COC(=O)CC(C(=O)OCC(CC)CCCC)S(=O)(=O)O.O=C(O)c1cn(C2CC2)c2cc(N3CCNCC3)c(F)cc2c1=O (stereo not drawn) [[Cip][Doc]] too.
Solution: 252.18

Problem: Subsequent entry: COc1c(N2C[C@@H]3CCCN[C@@H]3C2)c(F)cc2c(=O)c(C(=O)O)cn(C3CC3)c12.C[C@H](CCC(=O)O)[C@H]1CC[C@H]2[C@@H]3CC[C@@H]4C[C@H](O)CC[C@]4(C)[C@H]3C[C@H](O)[C@]12C [[Mox][Dxc]]
Solution: 208.92
